measurement_target: CHK2 (Homo sapiens, UniProt O96017)
Construct: made in house
Sequence (O96017 whole entry): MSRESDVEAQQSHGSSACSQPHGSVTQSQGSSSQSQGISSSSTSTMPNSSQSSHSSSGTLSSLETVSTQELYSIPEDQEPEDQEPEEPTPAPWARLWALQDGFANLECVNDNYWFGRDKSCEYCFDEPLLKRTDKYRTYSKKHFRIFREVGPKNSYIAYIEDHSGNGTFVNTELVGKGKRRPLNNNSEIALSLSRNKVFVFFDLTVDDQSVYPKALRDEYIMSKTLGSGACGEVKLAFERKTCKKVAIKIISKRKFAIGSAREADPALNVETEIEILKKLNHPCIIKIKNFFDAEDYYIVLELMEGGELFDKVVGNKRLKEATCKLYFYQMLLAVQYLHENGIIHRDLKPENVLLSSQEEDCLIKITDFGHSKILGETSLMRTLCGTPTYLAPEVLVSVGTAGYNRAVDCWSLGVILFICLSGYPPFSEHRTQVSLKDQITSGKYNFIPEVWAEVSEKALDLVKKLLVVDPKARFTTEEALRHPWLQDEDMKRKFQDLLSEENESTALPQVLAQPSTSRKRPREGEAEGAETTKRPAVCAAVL
protocol_details: CHK2 kinase activity assay (DELFIA, phosphorylation of a CDC25C peptide)
Format: biochemical
experimental_setup: following further studies; ATP 30 μM, CHK2 1 nM; read-out: IC50, inhibition of CHK2 kinase activity in vitro
quantity_kind: IC50

Some compounds with known IC50 results, for comparison:
compound: Oc1ccc(Cl)cc1-c1nc(N[C@@H]2CNC[C@H]2c2ccccc2)c2ccccc2n1 (relative stereo)
IC50: 0.3 to 3 µM

compound: Oc1ccccc1-c1nc(N[C@H]2CCNC2)c2ccc(-c3ccc(CN4CCOCC4)cc3)cc2n1
IC50: ≤ 0.3 µM

compound: CN1CCC[C@@H](Nc2nc(-c3ccccc3O)nc3ccccc23)C1
IC50: 0.3 to 3 µM

What the record says about `CN1CCN(C(=O)[C@H]2C[C@H](Nc3nc(-c4ccccc4O)nc4ccccc34)CN2)CC1` : IC50 is 0.3 to 3 µM

Measured IC50, `O=C([C@H]1C[C@H](Nc2nc(-c3ccccc3O)nc3ccccc23)CN1)N1CCOCC1` : ≤ 0.3 µM

IC50 reading for `OCCCc1ccc2c(N[C@H]3CCNC3)nc(-c3cc(F)ccc3O)nc2c1` : ≤ 0.3 µM

Item: Oc1ccc(Cl)cc1-c1nc(NC2CCCNCC2)c2ccccc2n1 (centres unmarked) | IC50: ≤ 0.3 µM
